Assay: Lapatinib pharmacokinetics in rat blood plasma (BP), HPLC-MS/MS, noncompartmental analysis
Assay type: in vivo, rats
Conditions: male, Wistar, rat, plasma, po, 100 mg/kg, lapatinib p.o. 100 mg/kg alone, 4 h; read-out: Clapatinib in BP, single rat
test-readout: concentration at 4 h (ng/mL)
Enter your answer as a number in ng/mL; do not include the unit.

Which concentration at 4 h value is on record for CS(=O)(=O)CCNCc1ccc(-c2ccc3ncnc(Nc4ccc(OCc5cccc(F)c5)c(Cl)c4)c3c2)o1 ?
3830

###

Test: Lapatinib pharmacokinetics and uptake in rat cerebrospinal fluid (CSF)
Format: in vivo, rats
Details: male, Wistar, rat, cerebrospinal fluid (CSF), po, 100 mg/kg, lapatinib p.o. 100 mg/kg alone, 12 h; read-out: Clapatinib in CSF, S (medium value)
test-readout: concentration at 12 h (ng/mL)
Enter your answer as a number in ng/mL; do not include the unit.

Which concentration at 12 h value is on record for CS(=O)(=O)CCNCc1ccc(-c2ccc3ncnc(Nc4ccc(OCc5cccc(F)c5)c(Cl)c4)c3c2)o1 ?
7.23
